Data credit: ChEMBL document CHEMBL2046358

Consider the following compounds; for each one, report its Ratio Ki.
- testMethodNotes: Selectivity ratio of Ki for sigma1 receptor in guinea pig membrane to Ki for human VACht
- Type: cell membranes

• COc1ccc(C(=O)C2CCN([C@@H]3CN(C(=O)c4ccccc4)CC[C@H]3O)CC2)cc1 (racemic) = 374

Please state Ratio Ki for every compound in the list that follows.
1. O=C(c1ccc(F)cc1)C1CCN([C@@H]2CN(C(=O)c3cccnc3)CC[C@H]2O)CC1 (racemic)
2. Cc1ccsc1C(=O)N1CC[C@@H](N2CCC(C(=O)c3ccc(F)cc3)CC2)[C@H](O)C1 (racemic)
3. COc1ccc(C(=O)C2CCN([C@@H]3CCN(C(=O)c4cccs4)C[C@H]3O)CC2)cc1 (racemic)
4. COc1ccc(C(=O)C2CCN([C@@H]3CCN(C(=O)c4ccc(C)s4)C[C@H]3O)CC2)cc1 (racemic)
5. COc1ccc(C(=O)C2CCN([C@@H]3CN(C(=O)c4sccc4C)CC[C@H]3O)CC2)cc1 (racemic)
6. Cc1ccsc1C(=O)N1CC[C@@H](O)[C@H](N2CCC(C(=O)c3ccc(F)cc3)CC2)C1 (racemic)

Result:
17.1
2.85
6.47
1.73
1500
1060

Problem: Could you share which Ratio Ki value was measured for COc1ccc(C(=O)C2CCN([C@@H]3CN(C(=O)c4ccc(F)cc4)CC[C@H]3O)CC2)cc1 (racemic) ?
Result: 51.2
